assay: activity coefficient (dimensionless); of the first substance listed, at infinite dilution; xn = mol fraction of the nth substance listed; settings: 333.15 K; 101 kPa; Liquid; Chromatography; x1 = 0
Field: activity coefficient. Provide a value for each of the molecules that follow.

Please state activity coefficient for every molecule in the list that follows.
1. CCCCC [pentane] + CCCCCCCCCCCCCC[P+](CCCCCC)(CCCCCC)CCCCCC.O=S(=O)([N-]S(=O)(=O)C(F)(F)F)C(F)(F)F
2. C=CCCC [1-pentene] + CCCCCCCCCCCCCC[P+](CCCCCC)(CCCCCC)CCCCCC.O=S(=O)([N-]S(=O)(=O)C(F)(F)F)C(F)(F)F
3. C#CCCC [1-pentyne] + CCCCCCCCCCCCCC[P+](CCCCCC)(CCCCCC)CCCCCC.O=S(=O)([N-]S(=O)(=O)C(F)(F)F)C(F)(F)F
4. C=CCCCC [hex-1-ene] + CCCCCCCCCCCCCC[P+](CCCCCC)(CCCCCC)CCCCCC.O=S(=O)([N-]S(=O)(=O)C(F)(F)F)C(F)(F)F

Outgoing:
0.978
0.824
0.636
0.921

Please state, for each entry, its recorded activity coefficient.
1. C#CCCCC [1-hexyne] + CCCCCCCCCCCCCC[P+](CCCCCC)(CCCCCC)CCCCCC.O=S(=O)([N-]S(=O)(=O)C(F)(F)F)C(F)(F)F
2. C1CCCCCCC1 [cyclooctane] + CCCCCCCCCCCCCC[P+](CCCCCC)(CCCCCC)CCCCCC.O=S(=O)([N-]S(=O)(=O)C(F)(F)F)C(F)(F)F
3. C1CCCCCC1 [cycloheptane] + CCCCCCCCCCCCCC[P+](CCCCCC)(CCCCCC)CCCCCC.O=S(=O)([N-]S(=O)(=O)C(F)(F)F)C(F)(F)F
4. C1CCCC1 [cyclopentane] + CCCCCCCCCCCCCC[P+](CCCCCC)(CCCCCC)CCCCCC.O=S(=O)([N-]S(=O)(=O)C(F)(F)F)C(F)(F)F

Outgoing:
0.709
0.998
0.881
0.698

List the reported activity coefficient of each molecule below.
1. CC(C)=O [acetone] + CCCCCCCCCCCCCC[P+](CCCCCC)(CCCCCC)CCCCCC.O=S(=O)([N-]S(=O)(=O)C(F)(F)F)C(F)(F)F
2. Cc1ccccc1 [toluene] + CCCCCCCCCCCCCC[P+](CCCCCC)(CCCCCC)CCCCCC.O=S(=O)([N-]S(=O)(=O)C(F)(F)F)C(F)(F)F
3. CCCCCC [hexane] + CCCCCCCCCCCCCC[P+](CCCCCC)(CCCCCC)CCCCCC.O=S(=O)([N-]S(=O)(=O)C(F)(F)F)C(F)(F)F

Outgoing:
[0.327, 0.472, 1.11]

Incoming: Answer with the recorded activity coefficient of CCC(C)=O [butanone] + CCCCCCCCCCCCCC[P+](CCCCCC)(CCCCCC)CCCCCC.O=S(=O)([N-]S(=O)(=O)C(F)(F)F)C(F)(F)F only.
Outgoing: 0.309

----------
Could you please report measured activity coefficient for the items listed next?
assay: activity coefficient (dimensionless); of the first substance listed, at infinite dilution; xn = mol fraction of the nth substance listed; conditions: 333.15 K; 101 kPa; Liquid; Chromatography; x1 = 0
Answers are plain numbers.

Worked examples follow.
Compound | activity coefficient
c1ccccc1 [benzene] + CCCCCCCCCCCCCC[P+](CCCCCC)(CCCCCC)CCCCCC.O=S(=O)([N-]S(=O)(=O)C(F)(F)F)C(F)(F)F | 0.405
C#CCCCCCCC [1-nonyne] + CCCCCCCCCCCCCC[P+](CCCCCC)(CCCCCC)CCCCCC.O=S(=O)([N-]S(=O)(=O)C(F)(F)F)C(F)(F)F | 0.915

Incoming: Kindly indicate its recorded activity coefficient. Item: C=CCCCCC [1-heptene] + CCCCCCCCCCCCCC[P+](CCCCCC)(CCCCCC)CCCCCC.O=S(=O)([N-]S(=O)(=O)C(F)(F)F)C(F)(F)F
Outgoing: 1.06

All values here come from the NIST ThermoML archive (doi:10.1016/j.jct.2013.05.030).
